# Test system: HSF1 pathway (HSP72 expression) in SK-OV-3 cells
# method_notes: Cell-based ELISA (Cellisa) assay: HSP72 induction by 17-AAG in SK-OV-3 cells
# test_parameters: Homo sapiens, compound 1 h before 17-AAG (250 nM), then 18 h, HSP72 antibody, europium counts normalised to protein, 50% inhibitory concentration, read-out: SKOV3 Cellisa
Labelling field: enter 1 (yes) if recorded IC50 is less than 2000 nM. Enter 0 (no) if it equals or exceeds that cut-off.

>>> group("Cc1ccc2cc(C(=O)Nc3cc(NC(=O)c4ccc5c(c4)CCO5)ccc3C)ccc2n1")
"1 (yes)"

Quick check: IC50 of Cc1ccc2cc(C(=O)Nc3cc(NC(=O)c4ccc5ccoc5c4)ccc3C)ccc2n1 under 2000 nM? 1 (yes)

Same read-out for Cc1ccc2cc(C(=O)Nc3cc(NC(=O)c4ccc5c(c4)OCC5)ccc3Cl)ccc2n1 ? 0 (no)

Same read-out for Cc1ccc2cc(C(=O)Nc3cc(NC(=O)c4ccc5c(c4)OC(C)C5)ccc3C)ccc2n1 (racemic) ? 0 (no)

Same read-out for O=C(Nc1ccc(F)c(NC(=O)c2ccc3nc(CN4CCC4)ccc3c2)c1)c1ccc2c(c1)OCC2 ? 0 (no)

Same read-out for Cc1ccc2cc(C(=O)Nc3cc(NC(=O)c4ccc5c(c4)OCC5)ccc3C)ccc2n1 ? 1 (yes)

Same read-out for CCN1CCN(Cc2ccc3cc(C(=O)Nc4cc(NC(=O)c5ccc6c(c5)OCC6)ccc4F)ccc3n2)CC1 ? 1 (yes)

Same read-out for Cc1ccc2cc(C(=O)Nc3cc(NC(=O)c4ccc5c(c4)OCC5)ccc3F)ccc2n1 ? 1 (yes)
